Data origin, for the record: ChEMBL document CHEMBL1201862

- Test system: SW-620
- Procedure Details: NCI tumour cell line growth inhibition, 48 h
Activity calls are given as the source filed them. No stated cut-off is given here; in the data, active = GI50 up to about 1.1 µM and inactive = higher.

Molecule	Measurement Target	GI50
COc1ccccc1-c1cc(O)c2cccnc2n1	SW-620	30.1 µM (inactive)
CC(=O)Oc1ccc2cc(Oc3ccc(Cl)c(Cl)c3)c(=O)oc2c1	SW-620	33.3 µM (inactive)
O=C1C[C@@H]2C(COC(=O)c3ccccc3)N(OCc3ccccc3)C[C@@H]2O1 (some centres not stated)	SW-620	> 100 µM (inactive)
CC(=O)N1CCc2[nH]c3ccccc3c2CC1	SW-620	> 100 µM (inactive)
COC[C@@H](/N=C/C(C)(C)C)C(C)C	SW-620	> 100 µM (inactive)
C/C(=C\CO)CC/C=C(\C)CNc1ccccc1	SW-620	50.2 µM (inactive)
COc1ccc(/C=C2\CCCCC2=O)cc1	SW-620	> 100 µM (inactive)
COc1cc2c3c(n(C)c(=O)c2cc1OC)-c1cc2c(cc1C3=O)OCO2	SW-620	10.2 µM (inactive)
COC(=O)C(Cc1c(C2Nc3ccccc3C2CC(NC(=O)CNC(C)=O)C(=O)OC)[nH]c2ccccc12)NC(=O)CNC(C)=O (configuration not stated)	SW-620	> 100 µM (inactive)
C=CCSC1=N/C(=C\c2ccco2)C(=O)N1CC=C	SW-620	> 100 µM (inactive)
COc1cc(/C=C2\CCc3ccccc3C2=O)cc(OC)c1OC	SW-620	16.6 µM (inactive)
CCOC(=O)NC(NNc1ccc([N+](=O)[O-])cc1[N+](=O)[O-])(C(F)(F)F)C(F)(F)F	SW-620	40.3 µM (inactive)
COc1cc(O)c(C(=O)/C=C/c2ccc(O)cc2)cc1Oc1ccc(/C=C/C(=O)c2ccc(O)cc2O)cc1	SW-620	11.2 µM (inactive)
O=C(CSCC(=O)N/N=C\c1cc(Cl)cc(Cl)c1O)N/N=C\c1cc(Cl)cc(Cl)c1O	SW-620	3.79 µM (inactive)
O=C(N1CCOCC1)C1(c2ccccc2)CCNCC1	SW-620	> 100 µM (inactive)
CN(C)CCCN1N=Nc2cccc3cccc1c23	SW-620	24.3 µM (inactive)
CC(C)(C)OC(=O)NCCC1CNc2ccccc21 (configuration not stated)	SW-620	> 100 µM (inactive)
c1ccc(-c2cs[s+]c2)cc1	SW-620	49.5 µM (inactive)
O=C(O)CCC1(C(=O)O)CCC(=O)c2ccccc21 (configuration not stated)	SW-620	> 100 µM (inactive)
O=C1C=C/C(=N\N=C(c2ccccc2)c2ccccc2)O1	SW-620	> 10 µM (inactive)
O=C(O)C#CCO	SW-620	> 100 µM (inactive)
Cc1ncc([N+](=O)[O-])n1CCNC(=O)CCCn1ccnc1[N+](=O)[O-]	SW-620	> 100 µM (inactive)
CCCCCCCCCCCCC(SCCNC(=O)CCNC(=O)C(O)C(C)(C)COP(=O)(O)OP(=O)(O)OCC1OC(n2cnc3c(N)ncnc32)C(O)C1OP(=O)(O)O)C(=O)NCC(N)=O (configuration not stated)	SW-620	> 100 µM (inactive)
NC(=S)N1N=C(c2ccccc2O)CC1c1ccccc1 (configuration not stated)	SW-620	9.59 µM (inactive)
C=CCc1cccc(C(=O)/C=C(O)/C=C/c2ccccc2Cl)c1O	SW-620	8.43 µM (inactive)
N#CC(C(=N/NC(N)=S)/C(=N\NC(N)=S)C(C#N)c1ccccc1)c1ccccc1 (configuration not stated)	SW-620	> 10 µM (inactive)
CC(=O)N/N=C1/CC[C@@]2(C)C(=CC[C@H]3C4CCC(C(C)CCCC(C)C)[C@@]4(C)CCC32)C1(C)C (some centres not stated)	SW-620	53.3 µM (inactive)
COc1cc(CNC2=NCCC2)cc(OC)c1OC	SW-620	> 100 µM (inactive)
CCOC(=O)CNC(SC)=C(C#N)C#N	SW-620	> 100 µM (inactive)
c1ccc(C(NC2=NCCO2)c2ccccc2)cc1	SW-620	> 10 µM (inactive)
COc1cc(/C=C/C2=NN(c3cccc(S(=O)(=O)O)c3)C3(C2)C(Cl)C(=O)N3c2nc3ccccc3s2)ccc1O (configuration not stated)	SW-620	21.1 µM (inactive)
COc1ccc2c(c1)CCc1cc(C(N)=O)c3nnnn3c1-2	SW-620	> 100 µM (inactive)
N#C/C(=C\N1CCNC1=S)C(=O)c1ccc2ccccc2c1	SW-620	> 100 µM (inactive)
CCOc1ccc(NC(=O)CC2SC(Nc3ccc(Cl)cc3)=NC2=O)cc1 (configuration not stated)	SW-620	98.9 µM (inactive)
COc1ccc2nc3cc(Cl)ccc3c(Sc3ccc(N)cc3)c2c1	SW-620	3.77 µM (inactive)
CCOC(=O)C(=O)Nc1c(F)cc(F)cc1Br	SW-620	> 100 µM (inactive)
C/C(CC(=O)Nc1cc(C)ccc1C)=N/N=C(N)N	SW-620	> 100 µM (inactive)
